Catalogue of fold change of affinity values
assayed system: T1, Human CD137 ECD (human)
T1 construct: also called 4-1BB
T1 sequence (chain, as listed by the source limits assumed): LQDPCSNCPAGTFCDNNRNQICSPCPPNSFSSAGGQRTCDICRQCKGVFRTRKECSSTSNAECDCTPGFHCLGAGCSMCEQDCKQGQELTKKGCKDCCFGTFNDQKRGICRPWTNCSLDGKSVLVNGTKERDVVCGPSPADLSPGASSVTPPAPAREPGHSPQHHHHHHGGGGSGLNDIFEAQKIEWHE
assay: single mutant vs template dBBDu183H
Put your answer as a value accompanied by its unit after it.

Answered cases to consult:
{"binder": "H183/L072 VH T100bM (antibody, name in Kabat numbering, V domains shown) VH: QVQLVESGGGLVQPGRSLRLSCAASGFTFSNAWMHWVRQAPGKGLEWVAQIKDKGNAYAAYYAPSVKGRFTISRDDSKNSIYLQMNSLKTEDTAVYYCHYVHYASASMVLPAFGVDAWGQGTTVTVSS VL: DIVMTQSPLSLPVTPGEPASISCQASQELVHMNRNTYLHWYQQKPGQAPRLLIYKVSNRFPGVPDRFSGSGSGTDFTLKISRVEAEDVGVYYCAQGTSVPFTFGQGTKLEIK", "fold change of affinity": "0.5 fold"}
{"binder": "H183/L072 VH V63A (antibody, name in Kabat numbering, V domains shown) VH: QVQLVESGGGLVQPGRSLRLSCAASGFTFSNAWMHWVRQAPGKGLEWVAQIKDKGNAYAAYYAPSAKGRFTISRDDSKNSIYLQMNSLKTEDTAVYYCHYVHYASASTVLPAFGVDAWGQGTTVTVSS VL: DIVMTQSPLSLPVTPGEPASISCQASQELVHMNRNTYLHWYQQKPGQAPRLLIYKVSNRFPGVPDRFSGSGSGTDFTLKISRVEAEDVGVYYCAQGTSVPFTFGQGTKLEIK", "fold change of affinity": "0.9 fold"}

The record that follows has no fold change of affinity shown yet.
Exercise: Requested read-out: fold change of affinity. Entry: H183/L072 VH T100bA (antibody, name in Kabat numbering, V domains shown) VH: QVQLVESGGGLVQPGRSLRLSCAASGFTFSNAWMHWVRQAPGKGLEWVAQIKDKGNAYAAYYAPSVKGRFTISRDDSKNSIYLQMNSLKTEDTAVYYCHYVHYASASAVLPAFGVDAWGQGTTVTVSS VL: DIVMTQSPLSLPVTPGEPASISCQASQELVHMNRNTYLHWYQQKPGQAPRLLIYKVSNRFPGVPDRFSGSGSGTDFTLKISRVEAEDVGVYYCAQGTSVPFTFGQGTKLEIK
Key: 0 fold
